Hi there, I'd appreciate the recorded pEC50 for every entry that follows.
System: HCV 1b_Huh-Luc/Neo-ET cell line persistently expressing a bicistronic genotype 1b replicon in Huh 7 cells
procedure_text: HCV replicon assay (luciferase readout, 72 h)
Assay type: cell-based, HCV genotype 1b
condition_description: Hepatitis C virus, Huh-7, 72 h, read-out: Inhibition of HCV genotype 1b
pEC50: −log10 of the molar value.

Entry CC(C)(C)OC(=O)N[C@@H](C(=O)N1CCC[C@H]1C(=O)Nc1ccc(C#Cc2cnc([C@@H]3CCCN3C(=O)[C@H](NC(=O)OC(C)(C)C)c3ccccc3)[nH]2)cc1)c1ccccc1 — recorded pEC50 = > 9.00

Entry CNC(=O)N[C@@H](C(=O)N1CCC[C@H]1c1ncc(-c2ccc(C#Cc3ccc(-c4cnc([C@@H]5CCCN5C(=O)[C@H](NC(=O)C5CC5)c5ccccc5)[nH]4)cc3)cc2)[nH]1)c1ccccc1 — recorded pEC50 = > 9.00

Entry COC(=O)N[C@@H](C)C(=O)N1CCC[C@H]1c1ncc(-c2ccc(C#Cc3ccc4nc([C@@H]5CCCN5C(=O)[C@H](C)NC(=O)OC)[nH]c4c3)cc2)[nH]1 — recorded pEC50 = > 9.00

Entry COC(=O)N[C@@H](C(=O)N1CCC[C@H]1c1ncc(-c2ccc(C#Cc3ccc(-c4cnc([C@@H]5CCCN5C(=O)C5(c6ccccc6)CC5)[nH]4)cc3)cc2)[nH]1)c1ccccc1 — recorded pEC50 = > 9.00

Entry COC(=O)N[C@@H](C(=O)N1CCC[C@H]1c1ncc(-c2ccc(C#Cc3ccc(-c4cnc([C@@H]5CCCN5C(=O)[C@H](NC(=O)N5CC[C@H](O)C5)c5ccccc5)[nH]4)cc3)cc2)[nH]1)c1ccccc1 — recorded pEC50 = > 9.00

###

Hi there, I'd appreciate the recorded EC50 for every entry that follows.
Tested on: HCV 1b_Huh-Luc/Neo-ET cell line persistently expressing a bicistronic genotype 1b replicon in Huh 7 cells
procedure_text: HCV replicon assay (luciferase readout, 72 h)
Assay type: cell-based, HCV genotype 1b
condition_description: Hepatitis C virus, Huh-7, 72 h, read-out: Inhibition of HCV genotype 1b

Entry COC(=O)N[C@@H](C(=O)N1CCC[C@H]1c1ncc(-c2ccc(C#Cc3ccc(-c4cnc([C@@H]5CCCN5C(=O)[C@H](NC(=O)N5CCC[C@H]5CO)c5ccccc5)[nH]4)cc3)cc2)[nH]1)c1ccccc1 — recorded EC50 = < 1 nM

Entry COC(=O)N[C@H](C(=O)N1CCC[C@H]1c1ncc(-c2ccc(C#Cc3ccc4c(ccc5nc([C@@H]6CCCN6C(=O)[C@@H](NC(=O)OC)C(C)C)[nH]c54)c3)cc2)[nH]1)C(C)C — recorded EC50 = < 1 nM

Entry COC(=O)N[C@@H](C(=O)N1CCC[C@H]1c1ncc(-c2ccc(C#Cc3ccc(-c4cnc([C@@H]5CCCN5C(=O)[C@H](NC(=O)N5CC[C@H](F)C5)c5ccccc5)[nH]4)cc3)cc2)[nH]1)c1ccccc1 — recorded EC50 = < 1 nM

Entry COC[C@H]1CCCN1C(=O)N[C@@H](C(=O)N1CCC[C@H]1c1ncc(-c2ccc(C#Cc3ccc(-c4cnc([C@@H]5CCCN5C(=O)[C@H](NC(=O)OC)c5ccccc5)[nH]4)cc3)cc2)[nH]1)c1ccccc1 — recorded EC50 = < 1 nM

Entry COC(=O)N[C@@H](C(=O)N1CCC[C@H]1c1ncc(C#Cc2ccc(C#Cc3cnc([C@@H]4CCCN4C(=O)[C@@H](c4ccccc4)N(C)C)[nH]3)cc2)[nH]1)c1ccccc1 — recorded EC50 = < 1 nM

###

Hi there, I'd appreciate the recorded EC50 for every entry that follows.
Test system: HCV 1b_Huh-Luc/Neo-ET cell line persistently expressing a bicistronic genotype 1b replicon in Huh 7 cells
procedure_text: HCV replicon assay (luciferase readout, 72 h)
Type: cell-based, HCV genotype 1b
condition_description: Hepatitis C virus, Huh-7, 72 h, read-out: Inhibition of HCV genotype 1b

Entry CC(C)(C)OC(=O)N[C@@H](C(=O)N1CCC[C@H]1c1cc(-c2ccc(C#Cc3ccc(-c4cnc([C@@H]5CCCN5C(=O)[C@H](NC(=O)OC(C)(C)C)c5ccccc5)[nH]4)cc3)cc2)n[nH]1)c1ccccc1 [Compound 210] — recorded EC50 = < 1 nM

Entry COC(=O)N[C@H](C(=O)N1CCC[C@H]1c1ncc(-c2ccc(C#Cc3ccc(-c4cnc([C@@H]5CCCN5C(=O)[C@@H](c5ccccc5)N5CCOC5=O)[nH]4)cc3)cc2)[nH]1)C(C)C [Compound 1007] — recorded EC50 = < 1 nM

###

Tested on: HCV 1b_Huh-Luc/Neo-ET cell line persistently expressing a bicistronic genotype 1b replicon in Huh 7 cells
procedure_text: HCV replicon assay (luciferase readout, 72 h)
Assay type: cell-based, HCV genotype 1b
condition_description: Hepatitis C virus, Huh-7, 72 h, read-out: Inhibition of HCV genotype 1b
reported_endpoint: EC50

Entry COC(=O)N[C@@H](C(=O)N1CCC[C@H]1c1ncc(-c2ccc(C#Cc3ccc(-c4cnc([C@@H]5CCCN5C(=O)[C@H](NC(=O)N5CCCCC5)c5ccccc5)[nH]4)cc3)cc2)[nH]1)c1ccccc1 — recorded EC50 = < 1 nM

Entry CC(C)[C@H](NC(=O)N1CCCC1)C(=O)N1CCC[C@H]1c1ncc(-c2ccc(C#Cc3ccc(-c4cnc([C@@H]5CCCN5C(=O)[C@@H](NC(=O)N5CCCC5)C(C)C)[nH]4)cc3)cc2)[nH]1 — recorded EC50 = > 1000 nM

Entry O=C(N[C@@H](C(=O)N1CCC[C@H]1c1cc(-c2ccc(C#Cc3ccc(-c4cnc([C@@H]5CCCN5C(=O)[C@H](NC(=O)C5CC5)c5ccccc5)[nH]4)cc3)cc2)n[nH]1)c1ccccc1)C1CC1 — recorded EC50 = < 1 nM

Entry COC(=O)N[C@@H](C(=O)N1CCC[C@H]1c1ncc(-c2ccc(C#Cc3ccc(-c4cnc([C@@H]5CCCN5C(=O)[C@H](NC(=O)N5CCC[C@@H](O)C5)c5ccccc5)[nH]4)cc3)cc2)[nH]1)c1ccccc1 — recorded EC50 = < 1 nM

###

System: HCV 1b_Huh-Luc/Neo-ET cell line persistently expressing a bicistronic genotype 1b replicon in Huh 7 cells
procedure_text: HCV replicon assay (luciferase readout, 72 h)
Type: cell-based, HCV genotype 1b
condition_description: Hepatitis C virus, Huh-7, 72 h, read-out: Inhibition of HCV genotype 1b
pEC50: −log10 of the molar value.
reported_endpoint: pEC50

Entry O=C(N[C@@H](C(=O)N1CCC[C@H]1C(=O)NCc1ccc(C#Cc2ccc(-c3cnc([C@@H]4CCCN4C(=O)[C@H](NC(=O)C4CC4)c4ccccc4)[nH]3)cc2)cc1)c1ccccc1)C1CC1 [Compound 190] — recorded pEC50 = > 9.00

Entry COC(=O)N[C@H](C(=O)N1CCC[C@H]1c1ncc(-c2ccc(C#Cc3ccc4nc([C@@H]5CCCN5C(=O)[C@@H](C(C)C)N(C)C)[nH]c4c3)cc2)[nH]1)C(C)C [Compound 1020] — recorded pEC50 = > 9.00

Entry COC(=O)N[C@H](C(=O)N1CCC[C@H]1c1nc2ccc(C#Cc3ccc(-c4cnc([C@@H]5CCCN5C(=O)[C@H](C(C)C)N(C)C)[nH]4)cc3)cc2[nH]1)C(C)C [Compound 866] — recorded pEC50 = > 9.00

Entry CC1(O)CCN(C(=O)N[C@@H](C(=O)N2CCC[C@H]2c2nc(-c3ccc4cc(C#Cc5cnc([C@@H]6CCCN6C(=O)[C@H](NC(=O)N6CCC(C)(O)CC6)c6ccccc6)[nH]5)ccc4c3)c[nH]2)c2ccccc2)CC1 [Compound 805] — recorded pEC50 = > 9.00

Entry COC(=O)N[C@@H]1CCC[C@H]1C(=O)N1CCC[C@H]1c1ncc(-c2ccc(C#Cc3ccc4nc([C@@H]5CCCN5C(=O)[C@@H]5CCC[C@H]5NC(=O)OC)[nH]c4c3)cc2)[nH]1 [Compound 1058] — recorded pEC50 = 6.00 to 8.00

Entry CC(C)OC(=O)N[C@@H](C(=O)N1CCC[C@H]1c1ncc(-c2ccc(C#Cc3ccc(-c4cnc([C@@H]5CCCN5C(=O)[C@H](NC(=O)OC(C)C)c5ccccc5)[nH]4)cc3)cc2)[nH]1)c1ccccc1 [Compound 227] — recorded pEC50 = > 9.00

Entry COC(=O)N[C@@H](C(=O)N1CCC[C@H]1c1ncc(-c2ccc(C#Cc3ccc(-c4cnc([C@@H]5CCCN5C(=O)[C@H](OC)c5ccccc5)[nH]4)cc3)cc2)[nH]1)c1ccccc1 [Compound 179] — recorded pEC50 = > 9.00

Entry COC(=O)N[C@H](C(=O)N[C@@H](C)c1ncc(-c2ccc(C#Cc3ccc(-c4cnc([C@H](C)NC(=O)[C@@H](NC(=O)OC)C(C)C)[nH]4)cc3)cc2)[nH]1)C(C)C [Compound 951] — recorded pEC50 = > 9.00

Entry CC(C)[C@@H](NC(=O)OC(C)(C)C)C(=O)N1CCC[C@H]1c1ncc(-c2ccc(C#Cc3ccc(-c4cnc([C@@H]5CCCN5C(=O)[C@H](NC(=O)OC(C)(C)C)C(C)C)[nH]4)cc3)cc2)[nH]1 [Compound 152] — recorded pEC50 = 6.00 to 8.00

Entry COC(=O)N[C@H](C(=O)N[C@@H](C)c1ncc(-c2ccc(C#Cc3ccc(-c4cnc([C@H](C)NC(=O)[C@@H](NC(=O)OC)[C@@H](C)O)[nH]4)cc3)cc2)[nH]1)[C@@H](C)O [Compound 969] — recorded pEC50 = > 9.00

Entry O=C([C@H](O)c1ccccc1)N1CCC[C@H]1c1ncc(-c2ccc(C#Cc3ccc(-c4cnc([C@@H]5CCCN5C(=O)[C@H](O)c5ccccc5)[nH]4)cc3)cc2)[nH]1 [Compound 157] — recorded pEC50 = > 9.00

Entry CC(C)[C@@H](NC(=O)C1CC1)C(=O)N1CCC[C@H]1c1ncc(C#Cc2ccc(-c3cnc([C@@H]4CCCN4C(=O)[C@H](NC(=O)C4CC4)C(C)C)[nH]3)cc2)[nH]1 [Compound 107] — recorded pEC50 = 8.00 to 9.00

Entry COC(=O)N[C@H](C(=O)N1CCC[C@H]1c1ncc(-c2ccc(C#Cc3ccc(-c4cnc([C@@H]5CCCN5C(=O)[C@@H](c5ccccc5)N5CCN(CCO)CC5)[nH]4)cc3)cc2)[nH]1)C(C)C [Compound 958] — recorded pEC50 = > 9.00

Entry CC(C)(C)OC(=O)N[C@@H](C(=O)N1CCC[C@H]1c1ncc(C#Cc2ccc(-c3ccc(-c4cnc([C@@H]5CCCN5C(=O)[C@H](NC(=O)OC(C)(C)C)c5ccccc5)[nH]4)cc3)cc2)[nH]1)c1ccccc1 [Compound 757] — recorded pEC50 = > 9.00

Entry COC(=O)N[C@H](C(=O)N1CCC[C@H]1c1ncc(-c2ccc(C#Cc3ccc(-c4cnc([C@@H]5CCCN5C(=O)[C@H](NC(=O)N5CC[C@@H](O)C5)c5ccccc5)[nH]4)cc3)cc2)[nH]1)C(C)C [Compound 975] — recorded pEC50 = > 9.00

Entry COC(=O)N[C@H](C(=O)N[C@@H](C)c1ncc(-c2ccc(C#Cc3ccc(-c4cnc([C@@H]5CCCN5C(=O)[C@H](C(C)C)N(C)C)[nH]4)cc3)cc2)[nH]1)C(C)C [Compound 963] — recorded pEC50 = 8.00 to 9.00

Entry CO[C@@H](C(=O)N1CCC[C@H]1c1ncc(-c2ccc(C#Cc3ccc(-c4cnc([C@@H]5CCCN5C(=O)[C@H](OC)c5ccccc5)[nH]4)cc3)cc2)[nH]1)c1ccccc1 [Compound 172] — recorded pEC50 = > 9.00

Entry O=C(Cc1cccnc1)N[C@@H](C(=O)N1CCC[C@H]1c1cc(-c2ccc(C#Cc3ccc(-c4cnc([C@@H]5CCCN5C(=O)[C@H](NC(=O)Cc5cccnc5)c5ccccc5)[nH]4)cc3)cc2)n[nH]1)c1ccccc1 [Compound 222] — recorded pEC50 = > 9.00
